- target.system: CYP2C19 (Homo sapiens, UniProt P33261)
- Sequence (P33261 whole entry): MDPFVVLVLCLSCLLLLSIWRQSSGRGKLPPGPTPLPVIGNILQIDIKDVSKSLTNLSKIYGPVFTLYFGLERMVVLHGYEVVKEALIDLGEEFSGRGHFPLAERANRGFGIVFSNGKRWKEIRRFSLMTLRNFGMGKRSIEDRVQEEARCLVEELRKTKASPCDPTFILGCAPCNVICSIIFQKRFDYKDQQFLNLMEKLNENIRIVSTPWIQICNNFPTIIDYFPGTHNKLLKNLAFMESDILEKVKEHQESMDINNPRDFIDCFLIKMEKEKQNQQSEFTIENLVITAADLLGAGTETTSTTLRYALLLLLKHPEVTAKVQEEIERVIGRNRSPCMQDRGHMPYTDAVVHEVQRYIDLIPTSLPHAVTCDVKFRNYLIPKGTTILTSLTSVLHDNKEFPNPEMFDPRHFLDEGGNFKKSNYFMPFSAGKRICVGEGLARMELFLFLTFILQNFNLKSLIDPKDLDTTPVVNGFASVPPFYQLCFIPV
measure.name: IC50

Prompt: Short answer please: IC50, CYP2C19 (Homo sapiens, UniProt P33261), entry CC(CCC(O)C(C)(O)CO)C1CCC2(C)C3=C(C(=O)CC12C)C1(C)CCC(=O)C(C)(C)C1CC3 (stereo not shown)
Completion: 15.4 µM

====

- target.system: CYP2B6 (Homo sapiens, UniProt P20813)
- Sequence (P20813 1-491): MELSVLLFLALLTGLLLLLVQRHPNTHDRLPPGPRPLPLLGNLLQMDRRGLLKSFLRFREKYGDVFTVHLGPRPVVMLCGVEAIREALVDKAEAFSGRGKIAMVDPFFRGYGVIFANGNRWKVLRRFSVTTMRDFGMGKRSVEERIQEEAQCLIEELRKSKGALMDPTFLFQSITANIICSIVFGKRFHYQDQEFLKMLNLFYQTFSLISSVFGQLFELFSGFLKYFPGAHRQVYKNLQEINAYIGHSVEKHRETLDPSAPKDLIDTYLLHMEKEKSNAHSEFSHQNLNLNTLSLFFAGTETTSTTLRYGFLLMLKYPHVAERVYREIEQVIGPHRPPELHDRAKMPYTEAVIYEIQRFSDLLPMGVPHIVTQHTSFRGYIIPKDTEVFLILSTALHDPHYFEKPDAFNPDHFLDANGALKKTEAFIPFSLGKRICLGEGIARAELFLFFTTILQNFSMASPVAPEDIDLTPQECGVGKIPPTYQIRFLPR
- experimental.details: CYP2B6 inhibition, probe/drug metabolism in human liver microsomes
- reported.conditions: IC50 against metabolism of efavirenz mediated by CYP2B6, substrate efavirenz 20 μM, 30 min
measure.name: pIC50
Remember the convention: pIC50 equals -log10 of concentration in molar.

Prompt: Recorded pIC50 of CC(CCC(O)C(C)(O)CO)C1CCC2(C)C3=C(C(=O)CC12C)C1(C)CCC(=O)C(C)(C)C1CC3 (stereo not shown) , please.
Completion: 4.61
